Where these numbers come from: patent US11214803B2

Tested on: Yap1 mRNA
TEST NAME: Antisense inhibition of human Yap1 in A-431 cells by cEt gapmers, single dose (Example 3, RTS36584)
Format: cell-based
ASSAY SETUP: Table 11; A-431 cells, 5,000 cells per well, free uptake, 2,000 nM oligonucleotide, approx. 48 hours; primer probe set RTS36584; Yap1 mRNA normalized to RIBOGREEN, percent of untreated control
Strand notation (5' to 3'): a small letter for the sugar, then the base; units joined by * are phosphorothioate-linked, units joined directly phosphodiester-linked; [ ] holds rarer units or linkages, { } end groups; capitals alone tell only the bases. k = constrained ethyl (cEt); [5mC] = 5-methylcytosine; d = 2'-deoxy (DNA)
EXPERIMENTAL ENDPOINT: YAP1 (% UTC)
Reply numerically in % UTC, unit not repeated.

SUBSTANCE | REPORTED VALUE
958813 (kT*kT*kA*d[5mC]*dA*dG*dA*dG*dA*dG*dA*dT*dT*k[5mC]*kA*kT; antisense) [Compound 958813] | 8
958588 (kG*kT*kG*dT*dA*d[5mC]*dT*dT*dA*dG*dG*dT*dG*kA*k[5mC]*kT; antisense) [Compound 958588] | 10
958523 (kT*kT*k[5mC]*d[5mC]*dA*dA*dT*d[5mC]*dG*dA*dG*dA*d[5mC]*kT*kT*kA; antisense) [Compound 958523] | 3
958753 (antisense kT*kG*kT*dA*dT*dA*dT*dG*d[5mC]*d[5mC]*dG*dT*dT*k[5mC]*k[5mC]*k[5mC]) [Compound 958753] | 4
958818 (kG*kT*kT*dG*dT*d[5mC]*dA*dA*d[5mC]*dT*d[5mC]*dT*dA*kG*kG*kG; antisense) [Compound 958818] | 23

Consider 958728 (antisense kT*kA*kT*d[5mC]*dT*dG*dT*d[5mC]*dA*dG*dT*dT*dA*kT*k[5mC]*k[5mC]) [Compound 958728] . Its measured YAP1 (% UTC) is 10

Value of YAP1 (% UTC) reported for the substance 958568 (kT*kA*kT*dG*dA*dG*dT*dG*dA*dT*d[5mC]*dA*dA*k[5mC]*k[5mC]*kT; antisense) [Compound 958568] is 5

Entry 958628 (antisense kG*k[5mC]*kT*dA*dA*d[5mC]*dT*dA*d[5mC]*dA*dT*dT*dG*k[5mC]*kA*kG) [Compound 958628] — recorded YAP1 (% UTC) = 81

====

Below, each of the substances is paired with its reported log10 AST value.
TEST NAME: Tolerability in Balb/c mice, plasma chemistry markers (Example 12)
Format: in vivo
ASSAY SETUP: 50 mg/kg subcutaneously twice a week for four weeks
Strand notation (5' to 3'): a small letter for the sugar, then the base; units joined by * are phosphorothioate-linked, units joined directly phosphodiester-linked; [ ] holds rarer units or linkages, { } end groups; capitals alone tell only the bases. k = constrained ethyl (cEt); [5mC] = 5-methylcytosine; d = 2'-deoxy (DNA)
The figures below represent log10 of AST, where AST is stated in U/L.

Please review the following examples before continuing.
SUBSTANCE | REPORTED VALUE
958540 (kA*kT*kT*d[5mC]*dT*dA*dT*d[5mC]*d[5mC]*dA*dG*dG*dG*kT*k[5mC]*kA; antisense) [compound 958540] | 3.60
958498 (kG*kA*kG*dT*dA*dT*dG*dT*dG*dG*d[5mC]*dA*dA*kT*kA*kA; antisense) [compound 958498] | 3.50
958509 (kA*kT*kG*dT*dT*dA*dT*dG*dT*dT*dT*dG*dG*kG*kT*kG; antisense) [compound 958509] | 3.21
958554 (kA*kA*k[5mC]*d[5mC]*dA*dT*dT*dA*dT*dT*dA*d[5mC]*dT*k[5mC]*k[5mC]*kT; antisense) [compound 958554] | 3.02
958454 (antisense kG*kG*kA*dA*dT*dG*dA*dG*d[5mC]*dT*d[5mC]*dG*dA*kA*k[5mC]*kA) [compound 958454] | 3.33
958590 (kA*kG*kG*dT*dA*dT*dA*dA*d[5mC]*dT*dG*dG*dG*k[5mC]*kA*kA) [compound 958590] | 2.56

Query 958553 (k[5mC]*k[5mC]*kA*dT*dT*dA*dT*dT*dA*d[5mC]*dT*d[5mC]*d[5mC]*kT*kG*kT; antisense) [compound 958553] yields log10 AST of 2.36

Documented log10 AST of 958725 (kG*kT*k[5mC]*dA*dG*dT*dT*dA*dT*d[5mC]*d[5mC]*dT*dA*kT*k[5mC]*k[5mC]; antisense) [compound 958725] : 3.57

====

Tested on: Yap1 mRNA
TEST NAME: Dose-dependent inhibition of human Yap1 in SNU-449 cells (Example 9, RTS36584)
Assay type: cell-based
ASSAY SETUP: 31.3 nM, free uptake, approximately 48 hours
Strand notation (5' to 3'): a small letter for the sugar, then the base; units joined by * are phosphorothioate-linked, units joined directly phosphodiester-linked; [ ] holds rarer units or linkages, { } end groups; capitals alone tell only the bases. e = 2'-O-(2-methoxyethyl) (MOE); k = constrained ethyl (cEt); [5mC] = 5-methylcytosine; d = 2'-deoxy (DNA); m = 2'-O-methyl
# label = rule met if % UTC (Yap1 mRNA) >= 60 % UTC else rule not met

SUBSTANCE | TARGET ENTITY | QUALITATIVE LABEL
1198398 (G_{ks}^{m}C_{ds}A_{ds}C_{ds}T_{ds}T_{ds}T_{ds}T_{ds}A_{ds}^{m}C_{ds}A_{ds}T_{ks}T_{es}A_{ks}G_{es}G_{k}; cEt, 2'-MOE, 5-methylcytosine, phosphorothioate modifications, as printed in the source, key not given here) [compound 1198398] | Yap1 mRNA | rule met
1198656 (kG*k[5mC]*dA*d[5mC]*dT*dT*dT*dT*dA*d[5mC]*dA*dT*kT*eA*kG*eG; antisense) [compound 1198656] | Yap1 mRNA | rule not met
1198268 (kA*kA*dG*dT*dG*dT*dA*dT*dG*dT*d[5mC]*eA*eG*eA*kA*kG; antisense) [compound 1198268] | Yap1 mRNA | rule met
1198814 (kA*kG*dA*dG*dT*dA*dT*dG*dT*dG*dG*k[5mC]*eA*kA*eT*kA) [compound 1198814] | Yap1 mRNA | rule met
1198529 (kT*kT*dA*dA*dA*dG*dT*dG*dT*dA*dT*eG*kT*e[5mC]*kA*eG; antisense) [compound 1198529] | Yap1 mRNA | rule met

Request: % UTC (Yap1 mRNA) >= 60 % UTC for 1197178 (kA*kA*kT*dT*dG*dT*d[5mC]*dT*d[5mC]*dA*dT*dG*d[5mC]*k[5mC]*kT*kT; antisense) [compound 1197178] ?
Response: rule met

Request: Identify whether the reported % UTC (Yap1 mRNA) of the following substance is 60 % UTC or greater: 1198623 (CTAAGTAAGGTTTCCC; modified gapmer, further chemistry not given here) [compound 1198623]
Response: rule not met

Request: Would you say 1197236 (kT*kA*kT*dT*mA*dG*dA*dG*dT*dA*dT*dG*dT*kG*kG*k[5mC]; antisense) [compound 1197236] shows % UTC (Yap1 mRNA) at minimum 60 % UTC?
Response: rule met

====

TEST NAME: Cynomolgus monkey tolerability, kidney and liver function markers (Example 34)
ASSAY SETUP: cynomolgus monkeys, 35 mg/kg subcutaneously, day 44
Quick reference for AST among some substances
The figure you give is taken to be in IU/L; do not add the unit.

SUBSTANCE | AST / IU/L
1198623 (CTAAGTAAGGTTTCCC; modified gapmer, further chemistry not given here) [compound 1198623] | 47
958499 (ATTAGAGTATGTGGCA; 3-10-3 cEt gapmer, further chemistry not given here) [compound 958499] | 73
1197270 (TTAAAGTGTATGTCAG; cEt gapmer with 2'-OMe nucleoside, phosphorothioate, further chemistry not given here) [compound 1197270] | 78
1198605 (GTAATATTGCAATCTG; modified gapmer, further chemistry not given here) [compound 1198605] | 58
1198831 (CACTTTTACATTAGGA; chemically modified gapmer, further chemistry not given here) [compound 1198831] | 63

Query 1198728 (TATTAGAGTATGTGGC; modified gapmer, further chemistry not given here) [compound 1198728] yields AST of 92

====

In this section we review reported log10(TBIL) values for a set of substances.
TEST NAME: Tolerability in Balb/c mice, plasma chemistry markers (Example 11)
Format: in vivo
ASSAY SETUP: 50 mg/kg subcutaneously twice a week for four weeks
Procedure: Balb/c mice were treated with modified oligonucleotides selected from studies described above and evaluated for changes in the levels of various plasma chemistry markers. Groups of male Balb/c mice at 4-6 weeks of age (obtained from Taconic) were injected subcutaneously twice a week for four weeks (for a total of 8 treatments) with 50 mg/kg of modified oligonucleotides. One group of male Balb/c mice was injected with PBS. […]
Strand notation (5' to 3'): a small letter for the sugar, then the base; units joined by * are phosphorothioate-linked, units joined directly phosphodiester-linked; [ ] holds rarer units or linkages, { } end groups; capitals alone tell only the bases. k = constrained ethyl (cEt); [5mC] = 5-methylcytosine; d = 2'-deoxy (DNA)
Log scale reminder: TBIL in mg/dL, then log10 taken.

Worked examples, 2 substances total:
SUBSTANCE | log10(TBIL)
715473 (kT*k[5mC]*kT*dT*dT*dA*dT*d[5mC]*dT*dA*dG*d[5mC]*dT*kT*kG*kG; antisense) [compound 715473] | 0.44
716455 (antisense kG*kT*kT*dA*dT*dG*dT*dT*dT*dG*dG*dG*dT*kG*kT*kG) [compound 716455] | -0.60

Note: attention shifts to another entry.
715483 (k[5mC]*kT*k[5mC]*dT*dT*dT*dG*dG*dA*dA*dA*d[5mC]*d[5mC]*kA*kT*kT) [compound 715483] yielded log10(TBIL) of -0.77
